- TARGET OR TEST SYSTEM: T1, PUF4 RNA-binding domain (Saccharomyces cerevisiae, UniProt P25339 537-888)
- T1 sequence: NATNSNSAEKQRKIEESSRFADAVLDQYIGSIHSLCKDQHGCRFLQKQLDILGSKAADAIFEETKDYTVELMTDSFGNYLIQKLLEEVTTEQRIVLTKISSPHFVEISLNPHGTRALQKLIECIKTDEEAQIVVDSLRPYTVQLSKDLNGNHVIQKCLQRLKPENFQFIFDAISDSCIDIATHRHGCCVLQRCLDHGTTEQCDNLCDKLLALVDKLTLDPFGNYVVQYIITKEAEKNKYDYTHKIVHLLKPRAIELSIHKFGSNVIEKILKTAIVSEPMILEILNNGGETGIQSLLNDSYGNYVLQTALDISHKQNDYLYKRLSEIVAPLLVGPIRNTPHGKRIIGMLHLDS
- ASSAY NAME: Mg; RNA-MaP; 20 mM Na-HEPES pH 7.4, 30 mM KOAc, 0.75 mM MgCl2, 0.1% Tween-20, 5% glycerol, 0.1 mg/mL BSA, 2 mM DTT; 25 C; 0.0125-409.6 nM protein
- CONDITION: tags: N-His6-TEV cleaved; C-SNAP kept, Cy3B-labelled; label: tethered on chip by stalled RNA polymerase
Entries and their Kd
Just the number in nM, nothing appended.

Study these solved cases before continuing.
[[record]]
binder = "Id_ii_S4_P5E.3_K5.2_C5.2_[C-2G]_H5.2_A5.1_F5.1_T5.2_[A12T] (ssRNA) RNA: UUUGACAACUGAUCGUUCUUUCUGUUAUAUUAUUAUUUUCUUUCUCGAUCAGUUGUCUUU"
value_reported = 28.2

[[record]]
binder = "Ie_S2_P4E.1_K4.1_C4.1_H4.1_A4.1_F4.1_[+8CCT]_T4.1 (ssRNA) RNA: UUUGAUUAAUAUGAUAUCGUUCUUUCUUGUAUAUUCCUAUUCUUUCUCGAUAUCAUAUUAAUCUUU"
value_reported = 3.9

[[record]]
binder = "Ic_S4_P4E.1_K4.1_C4.1_H4.1_A4.1_[T5C]_[A6G]_[T7G]_F4.1_[A9T]_T4.1 (ssRNA) RNA: UUUGACAACUGAUCGUUCUUUCUUGUACGGUUUUCUUUCUCGAUCAGUUGUCUUU"
value_reported = 158

[[record]]
binder = "Ic_S2_P4E.1_K4.1_C4.1_H4.1_A4.1_[A6G]_[T7G]_F4.1_[A9T]_T4.1 (ssRNA) RNA: UUUGAUUAAUAUGAUAUCGUUCUUUCUUGUAUGGUUUUCUUUCUCGAUAUCAUAUUAAUCUUU"
value_reported = 224


Let us move to another entry and its Kd.
(Q) What does the data say about its Kd? Entry: UCUCUUCUUAUAUAUAGCUCUCUU (ssRNA) [Id_ii_S1_P3E.3_K3.2_C3.2_H3.2_A3.1_F3.1_T3.2_[T9G]_[A10C]]
(A) 77.5
